# Test system: sodium channel
# PROCEDURE_DETAILS: Inhibition of rat sodium channel
# Type: toxicity
pIC50: −log10 of the molar value.
READOUT_LABEL: pIC50

- LINE_NOTATION: "O=S(=O)(c1ccc(Cl)cc1)N1[C@H]2CC[C@@H]([C@H]1c1ccc(C(F)(F)F)cc1)[C@@H](O)C2"
  ASSAY_SYSTEM: "sodium channel"
  READOUT_LABEL: "pIC50"
  EXPERIMENTAL_RESULT: "< 5.00"

Switching to the query record.
Ask | I have this compound here, N#Cc1ccc([C@@H]2[C@@H]3CC[C@@H](C[C@@H]3O)N2S(=O)(=O)c2ccc(Cl)cc2)cn1 , and I need its recorded pIC50.
Reply | < 5.00

###

# PROCEDURE_DETAILS: Inhibition of human PSEN1/APH1B expressed in MEF cells with Psen1/2 double knockout/Aph1ABC triple knockout by ELISA
# Assay type: cell-based
READOUT_LABEL: IC50 (nM)
Answer in nM, number only, no unit symbol.

Consider the following illustrative entries.
- COMPOUND: "COCC(=O)Nc1ccc([C@@H]2[C@@H]3CC[C@@H](C[C@@H]3O)N2S(=O)(=O)c2ccc(Cl)cc2)cc1 (racemic)"
  RESULT_UNIT: "nM"
  IC50: 52
- COMPOUND: "CCOC(=O)Nc1ccc([C@@H]2[C@@H]3CC[C@@H](C[C@@H]3O)N2S(=O)(=O)c2ccc(Cl)cc2)cc1 (racemic)"
  RESULT_UNIT: "nM"
  IC50: 29
- COMPOUND: "O=S(=O)(c1ccc(Cl)cc1)N1[C@H]2CC[C@H]([C@H](O)C2)[C@H]1c1ccccc1Cl (racemic)"
  RESULT_UNIT: "nM"
  IC50: 426
- COMPOUND: "O=S(=O)(c1ccc(Cl)cc1)N1[C@H]2CC[C@@H]([C@H]1c1ccc(Cl)cc1)[C@@H](O)C2 (racemic)"
  RESULT_UNIT: "nM"
  IC50: 46
- COMPOUND: "O=C1C[C@@H]2CC[C@H]1[C@@H](c1cc(F)ccc1F)N2S(=O)(=O)c1ccc(Cl)s1 (racemic)"
  RESULT_UNIT: "nM"
  IC50: 512
- COMPOUND: "O=S(=O)(c1ccc(Cl)cc1)N1[C@H]2CC[C@@H]([C@H]1c1ccc(C(F)(F)F)cc1)[C@@H](O)C2"
  RESULT_UNIT: "nM"
  IC50: 5.5
- COMPOUND: "O=C1C[C@@H]2CC[C@H]1[C@@H](c1ccc(Cl)cc1)N2S(=O)(=O)c1ccc(Cl)cc1 (racemic)"
  RESULT_UNIT: "nM"
  IC50: 182
- COMPOUND: "O=S(=O)(c1ccc(Cl)cc1)N1[C@H]2CC[C@@H]([C@H]1c1ccccc1Cl)[C@@H](O)C2 (racemic)"
  RESULT_UNIT: "nM"
  IC50: 3
- COMPOUND: "O=C1C[C@@H]2CC[C@H]1[C@@H](c1ccc(C(F)(F)F)cc1)N2S(=O)(=O)c1ccccc1Cl (racemic)"
  RESULT_UNIT: "nM"
  IC50: 5890
- COMPOUND: "CCNC(=O)Nc1ccc([C@@H]2[C@@H]3CC[C@@H](C[C@@H]3O)N2S(=O)(=O)c2ccc(Cl)cc2)cc1 (racemic)"
  RESULT_UNIT: "nM"
  IC50: 79.4

Switching to the query record.
Ask | I have this compound here, O=S(=O)(c1ccc(Cl)cc1)N1[C@H]2CC[C@H]([C@H](O)C2)[C@H]1c1ccc(C(F)(F)F)cc1 (racemic) , and I need its recorded IC50.
Reply | 109
